Assign half-life to each entry below.
- procedure_text: Human hepatocyte stability
- Type: in vitro ADME
- experimental_setup: cryopreserved hepatocytes; mixed human hepatocyte suspension, 37° C.

Consider the compound shown here: `O=C(O)[C@H]1CCCN(S(=O)(=O)c2ccccc2C(F)(F)F)C1` What is its recorded half-life? > 7.67 h

Next compound, half-life to be filled in.
Consider the compound shown here: `O=C(O)[C@@H]1CCCN(S(=O)(=O)c2ccccc2C(F)(F)F)C1` What is its recorded half-life? > 7.67 h

----------
- procedure_text: Plasma protein binding by rapid equilibrium dialysis, mouse plasma
- Format: in vitro ADME
- experimental_setup: 37° C.
Assign fraction unbound at 4 h, 5 μM to each entry below.
One number for each entry.

Consider the molecule shown here: `O=C(O)[C@@H]1CCCN(S(=O)(=O)c2ccccc2C(F)(F)F)C1` What is its recorded fraction unbound at 4 h, 5 μM? 0.162

Next molecule, fraction unbound at 4 h, 5 μM to be filled in.
Consider the molecule shown here: `O=C(O)[C@H]1CCCN(S(=O)(=O)c2ccccc2C(F)(F)F)C1` What is its recorded fraction unbound at 4 h, 5 μM? 0.219

----------
- procedure_text: Mouse hepatocyte stability
- Format: in vitro ADME
- experimental_setup: male, C57BL6, cryopreserved hepatocytes in suspension, 37° C.
property_name: half-life

Consider the molecule shown here: `O=C(O)[C@H]1CCCN(S(=O)(=O)c2ccccc2C(F)(F)F)C1` What is its recorded half-life? > 7.67 h

Next molecule, half-life to be filled in.
Consider the molecule shown here: `O=C(O)[C@@H]1CCCN(S(=O)(=O)c2ccccc2C(F)(F)F)C1` What is its recorded half-life? > 7.67 h

----------
- procedure_text: Pharmacokinetics in mice (blood, UPLC-MS/MS)
- Format: in vivo, mouse
- experimental_setup: mouse, whole blood; male C57Bl/6 mice, intravenously 2 mg/kg or orally 10 mg/kg, blood; read-out: Half-life in blood (t1/2) (converted)
Assign half-life to each entry below.
Give bare numbers, in min.

Consider the molecule shown here: `O=C(O)[C@H]1CCCN(S(=O)(=O)c2ccccc2C(F)(F)F)C1` What is its recorded half-life? 72

Continuing:
Consider the molecule shown here: `O=C(O)[C@@H]1CCCN(S(=O)(=O)c2ccccc2C(F)(F)F)C1` What is its recorded half-life? 32.4

----------
- procedure_text: Mouse hepatocyte stability
- Type: in vitro ADME
- experimental_setup: male, C57BL6, cryopreserved hepatocytes in suspension, 37° C., read-out: intrinsic clearance (CLint) in mouse hepatocytes
Assign hepatocyte CLint to each entry below.

Consider the compound shown here: `O=C(O)[C@@H]1CCCN(S(=O)(=O)c2ccccc2C(F)(F)F)C1` What is its recorded hepatocyte CLint? < 3 µL/min/1e6 cells

Continuing:
Consider the compound shown here: `O=C(O)[C@H]1CCCN(S(=O)(=O)c2ccccc2C(F)(F)F)C1` What is its recorded hepatocyte CLint? < 3 µL/min/1e6 cells

----------
- assay_target: hERG (Homo sapiens, UniProt Q12809)
- Sequence (Q12809 whole entry): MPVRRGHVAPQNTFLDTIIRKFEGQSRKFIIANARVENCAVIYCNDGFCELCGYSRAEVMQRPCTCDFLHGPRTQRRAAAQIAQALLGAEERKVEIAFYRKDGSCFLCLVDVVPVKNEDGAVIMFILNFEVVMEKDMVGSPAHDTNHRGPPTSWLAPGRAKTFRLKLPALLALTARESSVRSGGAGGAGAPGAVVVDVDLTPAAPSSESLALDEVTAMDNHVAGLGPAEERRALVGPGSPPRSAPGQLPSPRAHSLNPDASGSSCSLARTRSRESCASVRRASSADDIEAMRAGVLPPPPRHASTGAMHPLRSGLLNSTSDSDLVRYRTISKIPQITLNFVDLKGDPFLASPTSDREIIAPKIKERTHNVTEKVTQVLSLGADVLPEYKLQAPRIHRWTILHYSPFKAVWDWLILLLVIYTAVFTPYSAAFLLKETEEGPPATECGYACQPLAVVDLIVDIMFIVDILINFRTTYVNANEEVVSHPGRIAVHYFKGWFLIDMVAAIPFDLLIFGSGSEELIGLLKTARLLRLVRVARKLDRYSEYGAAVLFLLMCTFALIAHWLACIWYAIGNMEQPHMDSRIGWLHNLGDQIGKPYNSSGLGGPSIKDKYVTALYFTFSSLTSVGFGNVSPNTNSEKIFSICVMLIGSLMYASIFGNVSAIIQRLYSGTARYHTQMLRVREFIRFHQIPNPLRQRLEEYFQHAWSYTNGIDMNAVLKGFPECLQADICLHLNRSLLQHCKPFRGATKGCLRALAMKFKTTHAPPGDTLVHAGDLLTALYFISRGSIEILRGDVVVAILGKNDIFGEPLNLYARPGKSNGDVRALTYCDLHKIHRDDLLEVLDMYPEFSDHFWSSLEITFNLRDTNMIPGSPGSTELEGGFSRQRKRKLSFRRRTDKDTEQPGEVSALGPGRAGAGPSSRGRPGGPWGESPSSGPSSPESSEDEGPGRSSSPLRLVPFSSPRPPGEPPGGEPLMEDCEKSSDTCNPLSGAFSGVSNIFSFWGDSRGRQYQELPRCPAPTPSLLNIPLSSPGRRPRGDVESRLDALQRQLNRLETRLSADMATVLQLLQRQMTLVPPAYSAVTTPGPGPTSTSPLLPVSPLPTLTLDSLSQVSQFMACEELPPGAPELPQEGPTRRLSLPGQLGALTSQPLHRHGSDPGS
- procedure_text: hERG channel inhibition, Patchliner automated patch clamp
- Assay type: cell-based
- experimental_setup: human; at 100 μM
property_name: inhibition at 100 µM (%)
Give bare numbers, in %.

Consider the compound shown here: `O=C(O)[C@H]1CCCN(S(=O)(=O)c2ccccc2C(F)(F)F)C1` What is its recorded inhibition at 100 µM? 7
